Molecular target: BRAF^V600E protein (Homo sapiens, UniProt P15056, V600E)
Sequence (P15056 whole entry V600E): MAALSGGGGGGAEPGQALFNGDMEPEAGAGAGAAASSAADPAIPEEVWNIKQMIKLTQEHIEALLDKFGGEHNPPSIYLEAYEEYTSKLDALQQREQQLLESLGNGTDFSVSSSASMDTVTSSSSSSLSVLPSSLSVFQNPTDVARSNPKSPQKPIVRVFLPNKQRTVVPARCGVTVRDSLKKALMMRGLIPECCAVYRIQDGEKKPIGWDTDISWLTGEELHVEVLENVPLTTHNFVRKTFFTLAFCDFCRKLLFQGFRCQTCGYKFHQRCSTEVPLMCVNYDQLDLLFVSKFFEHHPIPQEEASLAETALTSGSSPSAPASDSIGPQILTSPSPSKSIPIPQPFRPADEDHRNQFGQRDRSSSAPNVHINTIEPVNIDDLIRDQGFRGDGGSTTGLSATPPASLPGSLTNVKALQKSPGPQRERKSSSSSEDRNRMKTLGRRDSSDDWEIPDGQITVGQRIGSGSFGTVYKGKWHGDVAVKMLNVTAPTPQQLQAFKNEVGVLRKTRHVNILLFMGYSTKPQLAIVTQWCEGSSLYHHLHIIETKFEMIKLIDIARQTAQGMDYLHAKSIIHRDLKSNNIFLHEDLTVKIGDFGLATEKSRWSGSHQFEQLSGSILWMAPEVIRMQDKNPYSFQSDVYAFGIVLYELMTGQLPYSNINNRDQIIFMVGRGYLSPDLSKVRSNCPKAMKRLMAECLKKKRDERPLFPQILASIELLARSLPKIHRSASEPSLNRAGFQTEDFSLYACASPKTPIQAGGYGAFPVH
Assay: HiBiT cellular BRAF V600E degradation assay
Format: cell-based
Conditions: A375.10 cells, 24 h incubation; Emax = amount of residual protein remaining in the cell after compound treatment; read-out: HiBit 24 h Emax
Where a name gives a salt, the structure may show the parent alone.
The entries below are paired with their reported Emax.
All answers are understood in %, so give the number only.

COMPOUND | STUDY_SYSTEM | UNITS_SYMBOL | Emax
CCN(C)S(=O)(=O)Nc1ccc(F)c(C(=O)c2c[nH]c3ncc(-c4cnc(N5CCN(C(=O)CC6(O)CCN(c7ccc(C8CCC(=O)NC8=O)cc7F)CC6)CC5)nc4)cc23)c1F (racemic) | BRAF^V600E protein (Homo sapiens, UniProt P15056, V600E) | % | 9.38
O=C1CCC(Nc2ccc(C3CCN(CC(=O)N4CCN(c5ccc(-c6cnc7[nH]cc(C(=O)c8c(F)ccc(NS(=O)(=O)C9CCCC9)c8F)c7c6)cc5)CC4)CC3)cc2)C(=O)N1 (stereo not shown) | BRAF^V600E protein (Homo sapiens, UniProt P15056, V600E) | % | 12
CCN(C)S(=O)(=O)Nc1ccc(F)c(C(=O)c2c[nH]c3ncc(-c4ccc(N5CCC(N(C)CC(=O)N6CCC(c7ccc(NC8CCC(=O)NC8=O)cn7)CC6)CC5)nc4)cc23)c1F (stereo not shown) [Example A101, hydrochloride] | BRAF^V600E protein (Homo sapiens, UniProt P15056, V600E) | % | 19
O=C1CCC(Nc2ccc(C3CCN(CC(=O)N4CCN(c5ccc(-c6cnc7[nH]cc(C(=O)c8c(F)ccc(NS(=O)(=O)N9CCCC9)c8F)c7c6)cn5)CC4)CC3)cc2)C(=O)N1 (stereo not shown) | BRAF^V600E protein (Homo sapiens, UniProt P15056, V600E) | % | 16.1
CCN(C)S(=O)(=O)Nc1ccc(F)c(C(=O)c2c[nH]c3ncc(-c4ccc(N5CCN(C(=O)CN6CCC(c7ccc(N8CCC(=O)NC8=O)cc7)CC6)CC5)nc4)cc23)c1F | BRAF^V600E protein (Homo sapiens, UniProt P15056, V600E) | % | 7
CCN(C)S(=O)(=O)Nc1ccc(F)c(C(=O)c2c[nH]c3ncc(-c4ccc(N5CCN(C(=O)CN6CCC(c7ccc(OC8CCC(=O)NC8=O)cn7)CC6)CC5)nc4)cc23)c1F (stereo not shown) | BRAF^V600E protein (Homo sapiens, UniProt P15056, V600E) | % | 21

# query: Emax of entry CC(C)S(=O)(=O)Nc1ccc(F)c(C(=O)c2c[nH]c3ncc(-c4cnc(N5CCN(C(=O)CN6CCC(c7ccc(NC8CCC(=O)NC8=O)cc7)CC6)CC5)nc4)cc23)c1F (stereo not shown)
8.8

Same read-out for CCCS(=O)(=O)Nc1ccc(F)c(C(=O)c2c[nH]c3ncc(-c4cnc(N5CCN(C(=O)CN6CCC(c7ccc(NC8CCC(=O)NC8=O)cc7)CC6)CC5)nc4)cc23)c1F (stereo not shown) ?
7.81

Same read-out for CCN(C)S(=O)(=O)Nc1ccc(F)c(C(=O)c2c[nH]c3ncc(-c4ccc(CN5CCN(CC(=O)N6CCC(c7ccc(NC8CCC(=O)NC8=O)cc7)CC6)CC5)nc4)cc23)c1F (stereo not shown) ?
12.9

Same read-out for O=C1CCC(Nc2ccc(N3CCN(CC(=O)N4CCN(c5ccc(-c6cnc7[nH]cc(C(=O)c8c(F)ccc(NS(=O)(=O)N9CCCC9)c8F)c7c6)cc5)CC4)CC3)cc2)C(=O)N1 (stereo not shown) ?
14

====

Molecular target: BRAF^V600E protein (Homo sapiens, UniProt P15056, V600E)
Assay: HiBiT cellular BRAF V600E degradation assay
Format: cell-based
Details: A375.10 cells (HiBiT tag knocked in at N-terminal of BRAF V600E), 24 h incubation; concentration at which 50% of total cellular BRAF V600E is degraded
So basically: is DC50 under 20 nM? Then T. Not under? Then F.

COMPOUND | STUDY_SYSTEM | ANSWER_LABEL
CCN(C)S(=O)(=O)Nc1ccc(F)c(C(=O)c2c[nH]c3ncc(-c4cnc(N5CCCN(C(=O)CN6CCC(c7ccc(NC8CCC(=O)NC8=O)cc7)CC6)CC5)nc4)cc23)c1F (centres unmarked) | BRAF^V600E protein (Homo sapiens, UniProt P15056, V600E) | F
CCN(C)S(=O)(=O)Nc1ccc(F)c(C(=O)c2c[nH]c3ncc(-c4cnc(N5CCC(N(C)CC(=O)N6CCC(c7ccc(NC8CCC(=O)NC8=O)cn7)CC6)CC5)nc4)cc23)c1F (centres unmarked) | BRAF^V600E protein (Homo sapiens, UniProt P15056, V600E) | F
CC(C)S(=O)(=O)Nc1ccc(F)c(C(=O)c2c[nH]c3ncc(-c4cnc(N5CCN(C(=O)CN6CCC(c7ccc(NC8CCC(=O)NC8=O)cc7)CC6)CC5)nc4)cc23)c1F (centres unmarked) | BRAF^V600E protein (Homo sapiens, UniProt P15056, V600E) | T
CCN(C)S(=O)(=O)Nc1ccc(F)c(C(=O)c2c[nH]c3ncc(-c4cnc(N5CCN(C(=O)CC6CCN(c7ccc8c(c7)n(C)c(=O)n8C7CCC(=O)NC7=O)CC6)CC5)nc4)cc23)c1F (centres unmarked) | BRAF^V600E protein (Homo sapiens, UniProt P15056, V600E) | F

Turning now to a further compound:
Check if DC50 falls below 20 nM for CCN(C)S(=O)(=O)Nc1cccc(C(=O)c2c[nH]c3ncc(-c4cnc(N5CCN(C(=O)NC6CCN(c7ccc(NC8CCC(=O)NC8=O)cc7F)CC6)CC5)nc4)cc23)c1F (centres unmarked) .
T

====

Target: BRAF^V600E protein (Homo sapiens, UniProt P15056, V600E)
Assay: HiBiT cellular BRAF V600E degradation assay
Format: cell-based
Settings: A375.10 cells, 24 h incubation; Emax = amount of residual protein remaining in the cell after compound treatment; read-out: HiBit 24 h Emax
The entries below are paired with their reported Emax.
All answers are understood in %, so give the number only.

Solved entries:
MOLECULE | Emax, %
CCN(C)S(=O)(=O)Nc1ccc(F)c(C(=O)c2c[nH]c3ncc(-c4cnc(N5CCN(C(=O)CN6CCC(c7ccc(NC8CCC(=O)NC8=O)cc7C(F)F)CC6)CC5)nc4)cc23)c1F (centres unmarked) | 8.74
CN(C1CC1)S(=O)(=O)Nc1ccc(F)c(C(=O)c2c[nH]c3ncc(-c4ccc(N5CCN(C(=O)CC6(O)CCN(c7ccc(NC8CCC(=O)NC8=O)cc7F)CC6)CC5)nc4)cc23)c1F (centres unmarked) | 21
CCN(C)S(=O)(=O)Nc1ccc(F)c(C(=O)c2c[nH]c3ncc(-c4ccc(CN5CCN(C(=O)CCCN6CCC(c7ccc(NC8CCC(=O)NC8=O)cc7)CC6)CC5)cc4)cc23)c1F (centres unmarked) | 19
CCN(C)S(=O)(=O)Nc1ccc(F)c(C(=O)c2c[nH]c3ncc(-c4cnc(N5CCN(C(=O)CN6CCC(c7ccc8c(c7)n(C)c(=O)n8C7CCC(=O)NC7=O)CC6)CC5)nc4)cc23)c1F (centres unmarked) | 19.2

# query: Emax of entry CCN(C)S(=O)(=O)Nc1ccc(F)c(C(=O)c2c[nH]c3ncc(-c4ccc(N5CCN(C(=O)CC6(O)CCN(c7ccc(N[C@H]8CCC(=O)NC8=O)cc7Cl)CC6)CC5)nc4)cc23)c1F
7.34

====

Molecular target: BRAF^V600E protein (Homo sapiens, UniProt P15056, V600E)
Test: HiBiT cellular BRAF V600E degradation assay
Assay type: cell-based
Conditions: A375.10 cells, 24 h incubation; Emax = amount of residual protein remaining in the cell after compound treatment; read-out: HiBit 24 h Emax
The entries below are paired with their reported Emax.
All answers are understood in %, so give the number only.

Notebook: pull reported Emax for BRAF^V600E protein (Homo sapiens, UniProt P15056, V600E), entry CCN(C)S(=O)(=O)Nc1ccc(F)c(C(=O)c2c[nH]c3ncc(-c4ccc(CN5CCN(C(=O)CN6CCC(c7ccc(NC8CCC(=O)NC8=O)cc7)CC6)CC5)cc4)cc23)c1F (stereo not shown) [Example A23]
13

Same read-out for CCN(C)S(=O)(=O)Nc1ccc(F)c(C(=O)c2c[nH]c3ncc(-c4ccc(N5CCN(C(=O)CN6CCC(c7ccc(NC8CCC(=O)NC8=O)cc7)C(F)(F)C6)CC5)nc4)cc23)c1F (stereo in doubt) [Example 77] ?
9.19

Same read-out for CCN(C)S(=O)(=O)Nc1cccc(C(=O)c2c[nH]c3ncc(-c4cnc(N5CCN(C(=O)CC6(O)CCN(c7ccc(NC8CCC(=O)NC8=O)cc7Cl)CC6)CC5)nc4)cc23)c1F (stereo not shown) [Example 103] ?
8.98

Same read-out for CCN(C)S(=O)(=O)Nc1cccc(C(=O)c2c[nH]c3ncc(-c4ccc(N5CCN(C(=O)CN6CCC(c7ccc(NC8CCC(=O)NC8=O)cc7)CC6)CC5)nc4)cc23)c1F (stereo not shown) [Example 107] ?
7.97

Same read-out for CCN(C)S(=O)(=O)Nc1ccc(F)c(C(=O)c2c[nH]c3ncc(-c4cc(F)c(N5CCN(C(=O)CC6(O)CCN(c7ccc(NC8CCC(=O)NC8=O)cc7F)CC6)CC5)c(F)c4)cc23)c1F (stereo not shown) [Example 195] ?
7.6

Same read-out for CCN(C)S(=O)(=O)Nc1ccc(F)c(C(=O)c2c[nH]c3ncc(-c4cnc(N5CC[C@@H](CC(=O)N6CCC(c7ccc(NC8CCC(=O)NC8=O)cc7)CC6)C5)nc4)cc23)c1F (stereo partly shown) [Example 131] ?
21.2

Same read-out for CCN(C)S(=O)(=O)Nc1cccc(C(=O)c2c[nH]c3ncc(-c4ccc(N5CCN(C(=O)CC6(O)CCN(c7ccc(NC8CCC(=O)NC8=O)cc7)CC6)CC5)cc4)cc23)c1F (stereo not shown) [Example 116] ?
13.4

Same read-out for CCN(C)S(=O)(=O)Nc1cccc(C(=O)c2c[nH]c3ncc(-c4ccc(N5CCN(C(=O)CN6CCC(c7ccc(NC8CCC(=O)NC8=O)cc7)CC6)CC5)nc4)cc23)c1Br (stereo not shown) [Example A114] ?
7.68

Same read-out for CCN(C)S(=O)(=O)Nc1ccc(F)c(C(=O)c2c[nH]c3ncc(-c4cnc(N5CCN(C(=O)CC6(O)CCN(c7ccc(N[C@@H]8CCC(=O)NC8=O)cc7Cl)CC6)CC5)nc4)cc23)c1F [Example 209] ?
5.52

Same read-out for CCN(C)S(=O)(=O)Nc1ccc(F)c(C(=O)c2c[nH]c3ncc(-c4cnc(N5CC6(C5)CN(C5CCN(c7ccc(NC8CCC(=O)NC8=O)cc7F)CC5)C6)nc4)cc23)c1F (stereo not shown) [Example 203] ?
5.13

Same read-out for CCN(C)S(=O)(=O)Nc1ccc(F)c(C(=O)c2c[nH]c3ncc(-c4cnc(N5CCN(C(=O)CC6(O)CCN(c7ccc(NC8CCC(=O)NC8=O)cc7F)CC6)CC5)c(F)c4)cc23)c1F (stereo not shown) [Example 188] ?
5.98

Same read-out for CCC(C)S(=O)(=O)Nc1ccc(F)c(C(=O)c2c[nH]c3ncc(-c4ccc(N5CCN(C(=O)CN6CCC(c7ccc(NC8CCC(=O)NC8=O)cc7)CC6)CC5)nc4)cc23)c1F (stereo not shown) [Example A29] ?
10.9

Same read-out for CCN(C)S(=O)(=O)Nc1ccc(F)c(C(=O)c2c[nH]c3ncc(-c4ccc(OC5CCN(C(=O)CN6CCC(c7ccc(NC8CCC(=O)NC8=O)cc7)CC6)CC5)cc4)cc23)c1F (stereo not shown) [Example A31] ?
12

Same read-out for O=C1CCC(Nc2ccc(CC(=O)N[C@H]3C[C@H](OC4CCN(c5ccc(-c6cnc7[nH]cc(C(=O)c8c(F)ccc(NS(=O)(=O)N9CCCC9)c8F)c7c6)cn5)CC4)C3)cc2)C(=O)N1 (stereo partly shown) [Example A105] ?
30

Same read-out for CCN(C)S(=O)(=O)Nc1ccc(F)c(C(=O)c2c[nH]c3ncc(-c4ccc(N5CCN(C(=O)CC6(O)CCN(c7cc(Cl)c(N8CCC(=O)NC8=O)cc7F)CC6)CC5)nc4)cc23)c1F [Example 219] ?
6.11

Same read-out for CCN(C)S(=O)(=O)Nc1ccc(F)c(C(=O)c2c[nH]c3ncc(-c4cnc(N5CCN(C(=O)CC6(O)CCN(c7cc(F)c(N8CCC(=O)NC8=O)cc7Cl)CC6)CC5)nc4)cc23)c1F [Example 216] ?
7.4

Same read-out for CCN(C)S(=O)(=O)Nc1ccc(F)c(C(=O)c2c[nH]c3ncc(-c4ccc(CN5CCN(C(=O)CN6CCN(c7ccc(NC8CCC(=O)NC8=O)cc7)CC6)CC5)nc4)cc23)c1F (stereo not shown) [Example A12] ?
24

Same read-out for CCN(C)S(=O)(=O)Nc1ccc(F)c(C(=O)c2c[nH]c3ncc(-c4ccc(CN5CCN(C(=O)CN6CCN(c7ccc(NC8CCC(=O)NC8=O)cc7)CC6)CC5)cc4)cc23)c1F (stereo not shown) [Example 95] ?
12.8

Same read-out for O=C1CCC(Oc2ccc(C3CCN(CC(=O)N4CCN(c5ccc(-c6cnc7[nH]cc(C(=O)c8c(F)ccc(NS(=O)(=O)N9CCCC9)c8F)c7c6)cc5)CC4)CC3)cc2)C(=O)N1 (stereo not shown) [Example A50] ?
12
